System: CYP2B6 mRNA expression
Settings: human, hepatocytes, 24 h, 10 μM
Measurement Type: Fold Change in mRNA Expression of CYP2B6
Provide the measurement as a number trailed by its unit.

Compound | Assay Target | Fold Change in mRNA Expression of CYP2B6
Cl.[2H]C(C)(C)Nc1cc(-c2c[nH]c(C(=O)N[C@H](CO)c3cccc(Cl)c3)c2)c(Cl)cn1 [Formula 21A] | CYP2B6 mRNA expression | 2.04 fold
CC(C)Nc1cc(-c2c[nH]c(C(=O)N[C@H](CO)c3cccc(Cl)c3)c2)c(Cl)cn1 [Ulixertinib, reference compound] | CYP2B6 mRNA expression | 1.99 fold
[2H]C([2H])([2H])C(Nc1cc(-c2c[nH]c(C(=O)N[C@H](CO)c3cccc(Cl)c3)c2)c(Cl)cn1)C([2H])([2H])[2H] | CYP2B6 mRNA expression | 2.10 fold

Query compound follows.
Task item: Look at this compound and give its reported Fold Change in mRNA Expression of CYP2B6. [2H]C([2H])([2H])C([2H])(Nc1cc(-c2c[nH]c(C(=O)N[C@H](CO)c3cccc(Cl)c3)c2)c(Cl)cn1)C([2H])([2H])[2H]
Reply: 1.90 fold

----------
Assay: Pharmacokinetics and metabolite formation in rats
Type: in vivo, rat
Conditions: both sexes; rat plasma, 12.5 mg/kg PO twice daily for five days, after second dose on Day 5, N=6; read-out: Half-life, t1/2, Mean (converted)
Measurement Type: half-life (h)
Use h as the unit, but write only the number.

Task item: Param item = CC(C)Nc1cc(-c2c[nH]c(C(=O)N[C@H](CO)c3cccc(Cl)c3)c2)c(Cl)cn1 [Ulixertinib, reference compound] ; retrieve measured half-life.
Reply: 3.67

----------
Listing: IC50 of selected compounds
Biological target: CYP2C19 (Homo sapiens)
Construct: from tissue; host or cells: human liver microsomes, mixed-gender pool of 200
Sequence (P33261 whole entry): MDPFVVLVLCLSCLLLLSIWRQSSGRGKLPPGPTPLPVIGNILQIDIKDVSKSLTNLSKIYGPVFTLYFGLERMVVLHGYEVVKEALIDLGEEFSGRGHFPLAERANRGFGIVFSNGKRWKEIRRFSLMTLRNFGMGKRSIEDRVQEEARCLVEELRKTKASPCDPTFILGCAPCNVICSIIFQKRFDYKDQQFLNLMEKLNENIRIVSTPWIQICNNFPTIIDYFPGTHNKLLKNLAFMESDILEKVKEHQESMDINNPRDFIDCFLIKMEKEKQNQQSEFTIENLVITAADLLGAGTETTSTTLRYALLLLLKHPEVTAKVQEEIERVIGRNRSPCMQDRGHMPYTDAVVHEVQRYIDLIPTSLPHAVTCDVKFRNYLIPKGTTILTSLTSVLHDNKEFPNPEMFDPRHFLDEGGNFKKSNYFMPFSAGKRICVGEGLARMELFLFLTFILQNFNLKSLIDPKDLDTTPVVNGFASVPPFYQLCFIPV
Assay: In-vitro CYP inhibition study, CYP2C19
Format: in vitro ADME
Conditions: human liver microsomes, substrate S-Mephenytoin (60 μM), preincubation 0 min
// return numeric value only (unit: µM, not printed)

Reference set, count: 3
Compound | Unit String | IC50
[2H]C([2H])([2H])C([2H])(Nc1cc(-c2c[nH]c(C(=O)N[C@H](CO)c3cccc(Cl)c3)c2)c(Cl)cn1)C([2H])([2H])[2H] | µM | 9.6
CC(C)Nc1cc(-c2c[nH]c(C(=O)N[C@H](CO)c3cccc(Cl)c3)c2)c(Cl)cn1 [Ulixertinib, reference compound] | µM | 8.5
Cl.[2H]C(C)(C)Nc1cc(-c2c[nH]c(C(=O)N[C@H](CO)c3cccc(Cl)c3)c2)c(Cl)cn1 [Formula 21A] | µM | 19

We next turn to a different compound, shown below.
Task item: I'd like to know its IC50. The compound in question is [2H]C([2H])([2H])C(Nc1cc(-c2c[nH]c(C(=O)N[C@H](CO)c3cccc(Cl)c3)c2)c(Cl)cn1)C([2H])([2H])[2H]
Reply: 10

----------
Test: Half-life determination in human liver microsomes
Format: in vitro ADME
Details: human, 1 μM, NADPH, Rep 3, read-out: Half-life, t½, Rep 3
Measured half-life at 1 μM, listed per entry for reference.
Form entry: value (min) — number only.

Molecule | Observed Measurement
[2H]C([2H])([2H])C(Nc1cc(-c2c[nH]c(C(=O)N[C@H](CO)c3cccc(Cl)c3)c2)c(Cl)cn1)C([2H])([2H])[2H] [Formula 19] | 46.1
[2H]C(C)(C)Nc1cc(-c2c[nH]c(C(=O)N[C@H](CO)c3cccc(Cl)c3)c2)c(Cl)cn1 [Formula 21] | 64.4
[2H]C([2H])([2H])C([2H])(Nc1cc(-c2c[nH]c(C(=O)N[C@H](CO)c3cccc(Cl)c3)c2)c(Cl)cn1)C([2H])([2H])[2H] [Formula 18] | 60.6

Kindly review the next molecule as well.
Task item: Using the record for CC(C)Nc1cc(-c2c[nH]c(C(=O)N[C@H](CO)c3cccc(Cl)c3)c2)c(Cl)cn1 [Ulixertinib, reference compound] , report its half-life at 1 μM.
Reply: 50.3
